Target: Sodium- and chloride-dependent glycine transporter 1 (Homo sapiens)
Sequence (P48067 whole entry): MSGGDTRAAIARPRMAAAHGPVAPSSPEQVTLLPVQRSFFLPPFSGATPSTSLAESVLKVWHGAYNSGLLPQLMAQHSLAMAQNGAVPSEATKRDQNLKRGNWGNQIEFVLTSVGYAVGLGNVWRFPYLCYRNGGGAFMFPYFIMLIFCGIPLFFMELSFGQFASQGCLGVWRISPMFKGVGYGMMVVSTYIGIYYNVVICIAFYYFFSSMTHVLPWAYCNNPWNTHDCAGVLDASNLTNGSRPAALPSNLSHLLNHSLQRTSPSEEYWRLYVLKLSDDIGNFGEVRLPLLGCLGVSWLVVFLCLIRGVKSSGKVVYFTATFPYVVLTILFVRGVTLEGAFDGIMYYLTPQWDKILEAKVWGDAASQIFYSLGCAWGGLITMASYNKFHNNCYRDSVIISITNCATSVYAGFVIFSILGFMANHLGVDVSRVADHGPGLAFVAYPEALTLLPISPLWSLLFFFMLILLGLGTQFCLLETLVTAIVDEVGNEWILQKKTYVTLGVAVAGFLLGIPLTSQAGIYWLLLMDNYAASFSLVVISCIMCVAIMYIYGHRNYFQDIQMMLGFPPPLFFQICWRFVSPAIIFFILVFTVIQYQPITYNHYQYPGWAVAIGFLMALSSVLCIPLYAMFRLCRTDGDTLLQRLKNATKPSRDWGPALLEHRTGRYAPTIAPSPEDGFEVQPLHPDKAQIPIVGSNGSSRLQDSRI
Assay: Inhibition of GlyT1 (unknown origin) expressed in HEK293 cells by scintillation proximity assay
For each of the compounds below, state its IC50.
Give bare numbers, in µM.

| compound | measurementName | unitAnnotation | val |
| --- | --- | --- | --- |
| COC(C)c1ccc(N2CCN(C(=O)c3cc(S(C)(=O)=O)ccc3-c3ccc(F)cc3)CC2)c(F)c1 (configuration not stated) | IC50 | µM | 0.02 |

Asked: Name the recorded IC50 for `CS(=O)(=O)c1ccc(-c2ccc(F)cc2)c(C(=O)N2CCN(c3ccc(N)cc3F)CC2)c1` .
Given back: 10
